Assay: Clearance in rat at 3 mg/kg, iv
Type: ADME, organism-based
Design: dose 3 mg/kg, route intravenous
Conditions: in vivo
property-measured: clearance
Please report the result as a number followed by the unit.

Entry under test: `COc1ccc2c(c1)NC1(CCN(C(=O)c3ccc(OC)c(N(C)C)c3)CC1)c1cccn1-2` . Its clearance was 0.39 L/h/kg

----------
Assay: in vivo
Settings: rat, plasma, po, 10 mg/kg
property-measured: AUC(0-t) at 6 h (µM·h)
Numbers only, in µM·h.

Record `COc1ccc2c(c1)NC1(CCN(C(=O)c3ccc(OC)c(N(C)C)c3)CC1)c1cccn1-2` , field AUC(0-t) at 6 h: 20.3
